Data provenance is patent US20260258115A1.

MEASURED_ON: RSV postfusion F (postF), F ΔFP (Respiratory syncytial virus, UniProt P03420 26-513)
ASSAY: BLI, IgG on anti-human IgG sensor, 100 nM antigen
ENDPOINT_LABEL: pKd
In simple prose, pKd is minus the logarithm base ten of a concentration in moles per litre.

Query: Item ADI-41701 (antibody, V domains shown) VH: QVQLVQSGAEVKKPGESLKISCQASGYSFTTYWIGWVRQTPGKGLEWMGIIYPGDSDTRYTPSFQGQVTISADKSISTAYLHWSSLKASDTAMYYCARLSGGYTFGFDYWGLGTLVTVSS VL: NFMLTQPHSVSESPGKTVTISCTRSSGNIARYYVQWYQQRPGRAPTTVIYEDDQRPSGVPDRFSGSIDRSSNSASLTISGLKTEDEADYYCQSYDASNYVFATGTKVTVL has what recorded pKd?
Response: 9.54
